Species on record: Rattus norvegicus
Assay name: Inhibitory potency against rat platelet membrane permeability at pH 7.35
Assay type: functional
pIC50: −log10 of the molar value.
Recorded endpoint: pIC50

For orientation, consider the following solved cases.
[
  {
    "Compound": "CCOC(=O)C(=O)C(CC)NC(=O)C(CC(C)C)NC(=O)OCc1ccccc1 (centres undefined)",
    "Recorded endpoint": "pIC50",
    "Val": 3.52
  },
  {
    "Compound": "CCOC(=O)C(=O)C(CC)NC(=O)C(CC(C)C)NC(=O)CCc1ccccc1 (centres undefined)",
    "Recorded endpoint": "pIC50",
    "Val": 4.70
  },
  {
    "Compound": "CC(C)CC(NC(=O)OCc1ccccc1)C(=O)NC(Cc1ccccc1)C(=O)C(=O)NCCc1ccccc1 (centres undefined)",
    "Recorded endpoint": "pIC50",
    "Val": 4.00
  },
  {
    "Compound": "CCOC(=O)C(=O)C(Cc1ccccc1)NC(=O)C(CC(C)C)NC(=O)OCc1ccccc1 (centres undefined)",
    "Recorded endpoint": "pIC50",
    "Val": 3.70
  },
  {
    "Compound": "CCC(=O)C(=O)[C@H](CC)NC(=O)[C@H](CC(C)C)NC(=O)[C@H](CC(C)C)NC(=O)OCc1ccccc1",
    "Recorded endpoint": "pIC50",
    "Val": 4.40
  }
]

1: CCNC(=O)C(=O)C(CC)NC(=O)C(CC(C)C)NC(=O)OCc1ccccc1 (centres undefined)
2: CCCCNC(=O)C(=O)C(CC)NC(=O)C(CC(C)C)NC(=O)OCc1ccccc1 (centres undefined)
3: CCOC(=O)C(=O)C(CC)NC(=O)C(CC(C)C)NC(=O)CCCc1ccccc1 (centres undefined)
Task field, ranking: reported pIC50, descending order. Please reply with the labels ordered as requested. Many thanks.
3, 2, 1
(3: 4.70, 2: 4.46, 1: 4.00)

----------
Species: Rattus norvegicus
Assay name: Inhibitory potency against rat platelet membrane permeability at pH 7.35
Type: functional
Recorded endpoint: IC50 (µM)

Before answering, review these 5 worked examples.
[
  {
    "Molecule": "CCCCCCCCNC(=O)C(=O)C(CC)NC(=O)C(CC(C)C)NC(=O)OCc1ccccc1 (centres undefined)",
    "IC50, µM": 200
  },
  {
    "Molecule": "CCC(NC(=O)C(CC(C)C)NC(=O)OCc1ccccc1)C(=O)C(=O)O (centres undefined)",
    "IC50, µM": 100
  },
  {
    "Molecule": "CCOC(=O)C(=O)[C@H](CC)NC(=O)[C@H](CC(C)C)NC(=O)[C@H](CC(C)C)NC(=O)c1ccc2ccccc2c1",
    "IC50, µM": 78
  },
  {
    "Molecule": "CC(C)CC(NC(=O)OCc1ccccc1)C(=O)NC(Cc1ccccc1)C(=O)C(=O)O (centres undefined)",
    "IC50, µM": 100
  },
  {
    "Molecule": "CCC(NC(=O)C(CC(C)C)NC(=O)OCc1ccccc1)C(=O)C(=O)OC (centres undefined)",
    "IC50, µM": 280
  }
]

a: CCCCOC(=O)C(=O)C(CC)NC(=O)C(CC(C)C)NC(=O)OCc1ccccc1 (centres undefined)
b: CCC(NC(=O)C(CC(C)C)NC(=O)OCc1ccccc1)C(=O)C(=O)NCCc1ccccc1 (centres undefined)
c: CCC(NC(=O)C(CC(C)C)NC(=O)OCc1ccccc1)C(=O)C(=O)OCc1ccccc1 (centres undefined)
Put the entries in order of IC50, starting with the largest number. Reply with the item labels sorted in the order that was asked for.
c, b, a
(c: 100 µM, b: 50 µM, a: 28 µM)
